# target-under-test: HLA-B*58:01 (Homo sapiens, UniProt P01889, A329T/C349S/D201E/D98Y/E176V/E187L/E204Q/E69T/G107R/I218V/I90N/K202T/L105A/L119I/N104I/N87E/Q89R/Q94S/R106L/R155S/R180L/R86G/S101N/S121R/S35A/S48A/T118I/V127L/V306I/V36M/Y140S/Y91M)
# Assay type: binding
# measurement-setup: percent relative the binding of positive control peptide […]; duplicated experiments; positive binder >40%
# label = Fulfilled if Bind B*58:01 >= 2% else Not fulfilled

QUERY: Is it the case that "IVMPVGGQS" has Bind B*58:01 reaching or exceeding 2%?
RESULT: Not fulfilled

QUERY: Is it the case that "SPACGKAGC" has Bind B*58:01 reaching or exceeding 2%?
RESULT: Not fulfilled

QUERY: Is it the case that "WVYCGNGTP" has Bind B*58:01 reaching or exceeding 2%?
RESULT: Fulfilled

QUERY: Is it the case that "QQFIYAGSL" has Bind B*58:01 reaching or exceeding 2%?
RESULT: Fulfilled

QUERY: Is it the case that "DGLRAQDDY" has Bind B*58:01 reaching or exceeding 2%?
RESULT: Not fulfilled

QUERY: Is it the case that "LDPSQGMGP" has Bind B*58:01 reaching or exceeding 2%?
RESULT: Fulfilled

QUERY: Is it the case that "GGANIPAEF" has Bind B*58:01 reaching or exceeding 2%?
RESULT: Fulfilled

QUERY: Is it the case that "MGPSLIGLA" has Bind B*58:01 reaching or exceeding 2%?
RESULT: Fulfilled

QUERY: Is it the case that "KPTGSAAIG" has Bind B*58:01 reaching or exceeding 2%?
RESULT: Not fulfilled

QUERY: Is it the case that QAALQSAWQ [Rv0288_36–44] has Bind B*58:01 reaching or exceeding 2%?
RESULT: Fulfilled

QUERY: Is it the case that YQAWQAQWN [Rv0288_51–59] has Bind B*58:01 reaching or exceeding 2%?
RESULT: Fulfilled

QUERY: Is it the case that "GTPNELGGA" has Bind B*58:01 reaching or exceeding 2%?
RESULT: Not fulfilled

QUERY: Is it the case that "AMGDAGGYK" has Bind B*58:01 reaching or exceeding 2%?
RESULT: Not fulfilled

QUERY: Is it the case that "LKFQDAYNA" has Bind B*58:01 reaching or exceeding 2%?
RESULT: Fulfilled

QUERY: Is it the case that LVANNT RLW has Bind B*58:01 reaching or exceeding 2%?
RESULT: Fulfilled

QUERY: Is it the case that QT YKWETFL has Bind B*58:01 reaching or exceeding 2%?
RESULT: Fulfilled

QUERY: Is it the case that GT HSWEYWG has Bind B*58:01 reaching or exceeding 2%?
RESULT: Fulfilled

QUERY: Is it the case that "YHPQQFIYA" has Bind B*58:01 reaching or exceeding 2%?
RESULT: Fulfilled

QUERY: Is it the case that RDTAEAAKW [Rv0288_86–94] has Bind B*58:01 reaching or exceeding 2%?
RESULT: Fulfilled

QUERY: Is it the case that "PNGTHSWEY" has Bind B*58:01 reaching or exceeding 2%?
RESULT: Not fulfilled

QUERY: Is it the case that "QQIPKLVAN" has Bind B*58:01 reaching or exceeding 2%?
RESULT: Fulfilled

QUERY: Is it the case that TMAMMARDT [Rv0288_80–88] has Bind B*58:01 reaching or exceeding 2%?
RESULT: Not fulfilled

QUERY: Is it the case that EQAALQSAW [Rv0288_35–43] has Bind B*58:01 reaching or exceeding 2%?
RESULT: Fulfilled

QUERY: Is it the case that "KFQDAYNAA" has Bind B*58:01 reaching or exceeding 2%?
RESULT: Not fulfilled

QUERY: Is it the case that "YAGSLSALL" has Bind B*58:01 reaching or exceeding 2%?
RESULT: Fulfilled

QUERY: Is it the case that "VRSSNLKFQ" has Bind B*58:01 reaching or exceeding 2%?
RESULT: Fulfilled

QUERY: Is it the case that "THSWEYWGA" has Bind B*58:01 reaching or exceeding 2%?
RESULT: Not fulfilled

QUERY: Is it the case that "SAAIGLSMA" has Bind B*58:01 reaching or exceeding 2%?
RESULT: Fulfilled

QUERY: Is it the case that "KAGCQTYKW" has Bind B*58:01 reaching or exceeding 2%?
RESULT: Fulfilled

QUERY: Is it the case that "VMPVGGQSS" has Bind B*58:01 reaching or exceeding 2%?
RESULT: Not fulfilled

QUERY: Is it the case that "YNAAGGHNA" has Bind B*58:01 reaching or exceeding 2%?
RESULT: Fulfilled

QUERY: Is it the case that SAWQGDTGI [Rv0288_41–49] has Bind B*58:01 reaching or exceeding 2%?
RESULT: Fulfilled

QUERY: Is it the case that "VKPTGSAAI" has Bind B*58:01 reaching or exceeding 2%?
RESULT: Not fulfilled

QUERY: Is it the case that "LIGLAMGDA" has Bind B*58:01 reaching or exceeding 2%?
RESULT: Not fulfilled

QUERY: Is it the case that "GSAAIGLSM" has Bind B*58:01 reaching or exceeding 2%?
RESULT: Fulfilled

QUERY: Is it the case that "MKGDLQSSL" has Bind B*58:01 reaching or exceeding 2%?
RESULT: Not fulfilled

QUERY: Is it the case that "LSANRAVKP" has Bind B*58:01 reaching or exceeding 2%?
RESULT: Not fulfilled

QUERY: Is it the case that "PSQGMGPSL" has Bind B*58:01 reaching or exceeding 2%?
RESULT: Not fulfilled

QUERY: Is it the case that "LSIVMPVGG" has Bind B*58:01 reaching or exceeding 2%?
RESULT: Fulfilled

QUERY: Is it the case that "WGAQLNAMK" has Bind B*58:01 reaching or exceeding 2%?
RESULT: Not fulfilled

---

# target-under-test: HLA-A*68:01 (Homo sapiens, UniProt P04439, A269V/D185E/E176V/E277Q/E87N/F33Y/G231S/I121M/I166T/I218V/L180W/L300P/L318F/N151K/P208A/P217A/Q86R/R169H/T345S)
# Format: binding
# measurement-setup: percent relative the binding of positive control peptide […]; duplicated experiments; positive binder >40%
Give measured Bind A*68:01 for each item. Keep answers brief.
Record the value in %, omitting the unit from your answer.

QUERY: Annotate the substance "SQGMGPSLI" with its measured Bind A*68:01.
RESULT: 0

QUERY: Annotate the substance "QSSFYSDWY" with its measured Bind A*68:01.
RESULT: 82

QUERY: Annotate the substance "ANNTRLWVY" with its measured Bind A*68:01.
RESULT: 0

QUERY: Annotate the substance NGT HSWEYW with its measured Bind A*68:01.
RESULT: 35

QUERY: Annotate the substance "AMILAAYHP" with its measured Bind A*68:01.
RESULT: 0

QUERY: Annotate the substance "YNAAGGHNA" with its measured Bind A*68:01.
RESULT: 32

QUERY: Annotate the substance "FIYAGSLSA" with its measured Bind A*68:01.
RESULT: 38

QUERY: Annotate the substance "LIGLAMGDA" with its measured Bind A*68:01.
RESULT: 0

QUERY: Annotate the substance KAADMW GPS with its measured Bind A*68:01.
RESULT: 17

QUERY: Annotate the substance "SLIGLAMGD" with its measured Bind A*68:01.
RESULT: 0

QUERY: Annotate the substance "GMGPSLIGL" with its measured Bind A*68:01.
RESULT: 0
